- Tested on: stomach ulcer
- protocol summary: Gastrointestinal ulcerogenicity
- Assay type: in vivo, Male Wistar rats
- test parameters: 32 mg/kg p.o., after 6 hours
Each entry below lists one item and its recorded Number of rats having a score of stomach ulcer of 2 or more/total number of rats used value.

{"compound": "CC(C(N)=O)c1ccc2c(c1)SCC1CCCCC1C2=O (single isomer, unassigned)", "meas value": "3/3"}
{"compound": "CCCCOC(=O)C(C)c1ccc2c(c1)SCC1CCCCC1C2=O (centres unmarked)", "meas value": "3/6"}
{"compound": "CCOC(=O)C(C)c1ccc2c(c1)SCC1CCCCC1C2=O (centres unmarked)", "meas value": "0/6"}

In: Which value of Number of rats having a score of stomach ulcer of 2 or more/total number of rats used has been reported for CC(C(=O)O)c1ccc2c(c1)SCC1CCCCC1C2=O (centres unmarked) [F] in the records?
Out: 2/6

In: Which value of Number of rats having a score of stomach ulcer of 2 or more/total number of rats used has been reported for CC(C(=O)OCCc1ccccc1)c1ccc2c(c1)SCC1CCCCC1C2=O (centres unmarked) in the records?
Out: 1/9
